# Percent Effect values compiled below
Organism: Homo sapiens
Test: To identify inhibition of the IFN signalling (Jak-Stat) pathway via expression of an eGFP reporter gene under the control of an IFN-stimulated response element (ISRE) containing MxA promoter.
Assay type: functional
Design: scale not given: direction of the effect not stated beside the values
Conditions: 30 µM
Answer format: numeric, % implied, no suffix.

Q: Please look at this compound and report its Percent Effect: Cc1noc(C)c1CNC(=O)N1CCC(C(O)c2ccccc2)CC1 (configuration not stated)
Result: 11.9

Further cases:
Q: Please look at this compound and report its Percent Effect: CC(CNC(=O)Nc1ccc(N(C)C)nc1)Cn1cccn1 (configuration not stated)
Result: -15.8

Q: Please look at this compound and report its Percent Effect: Cc1cnn(C2CCCN(C(=O)CCc3nccs3)C2)c1 (configuration not stated)
Result: 16.1
